Listed below: activity coefficient values for each entry.
protocol: activity coefficient (dimensionless); of the first substance listed, at infinite dilution; xn = mol fraction of the nth substance listed
details: 398.15 K; 101 kPa; Liquid; Chromatography; x1 = 0
Please state the value as a number alone, without comment.

Consider the reported activity coefficient for these compounds:
>>> recorded_result("CCC(C)O (configuration not stated) [butan-2-ol] + CCCCn1cc[n+](C)c1.CS(=O)(=O)[O-]")
1.11
>>> recorded_result("CCC(C)O (configuration not stated) [butan-2-ol] + CCCCn1cc[n+](C)c1.[Cl-]")
0.749
>>> recorded_result("CC(C)CO [2-methyl-1-propanol] + CCCCn1cc[n+](C)c1.[Cl-]")
0.54
>>> recorded_result("CO [methanol] + CCCCn1cc[n+](C)c1.[Cl-]")
0.156

stdin: // fetch activity coefficient given entry CO [methanol] + CCCCn1cc[n+](C)c1.COP(=O)([O-])OC
stdout: 0.097

stdin: // fetch activity coefficient given entry CCCCO [butan-1-ol] + CCCCn1cc[n+](C)c1.COP(=O)([O-])OC
stdout: 0.247

stdin: // fetch activity coefficient given entry CC(C)CO [2-methyl-1-propanol] + CCCCn1cc[n+](C)c1.CS(=O)(=O)[O-]
stdout: 0.893

stdin: // fetch activity coefficient given entry CCCO [propan-1-ol] + CCCCn1cc[n+](C)c1.COP(=O)([O-])OC
stdout: 0.197

stdin: // fetch activity coefficient given entry CC(C)(C)O [2-methylpropan-2-ol] + CCCCn1cc[n+](C)c1.COP(=O)([O-])OC
stdout: 0.419

stdin: // fetch activity coefficient given entry CC(C)O [propan-2-ol] + CCCCn1cc[n+](C)c1.COP(=O)([O-])OC
stdout: 0.256

stdin: // fetch activity coefficient given entry CC(C)O [propan-2-ol] + CCCCn1cc[n+](C)c1.CS(=O)(=O)[O-]
stdout: 0.835

stdin: // fetch activity coefficient given entry CC(C)(C)O [2-methylpropan-2-ol] + CCCCn1cc[n+](C)c1.CS(=O)(=O)[O-]
stdout: 1.28

stdin: // fetch activity coefficient given entry CCCCO [butan-1-ol] + CCCCn1cc[n+](C)c1.CS(=O)(=O)[O-]
stdout: 0.937
